Tested on: Wolbachia pipientis
test name: Anti-Wolbachia Cell-Based Screen
Assay type: functional
Parameters: scale not given: in the data most compounds retested in dose-response had high values
experimental conditions: 5 µM
The whole screen tested about 48,000 compounds, of which about 13,000 (27%) showed an effect of 50% or more. The list shows a part of the results.
readout label: Percent Effect (%)
Please reply with the bare figure in % and do not write the unit itself.

Here is how some compounds turned out for Percent Effect.
{"columns": ["compound", "test system", "Percent Effect / %"],
 "data": [
  ["COc1cc(Br)c(CNC2CCCNC2=O)cc1OC.Cl (centres undefined)", "Wolbachia pipientis", -7.392],
  ["CC(C)NC(=O)N1CCN2C(=O)OC[C@H]2C1", "Wolbachia pipientis", -2.318],
  ["CC(C)CC(=O)N1CC(=O)c2sc(NC3CCCCC3)nc2C1", "Wolbachia pipientis", 104.9],
  ["N#Cc1ccc(OC2CCN(C(=O)Cc3cccs3)CC2)nc1", "Wolbachia pipientis", 12.26]
]}

# evaluate next
Record CSc1ccc2cc(CN(C)CCO)c(=O)[nH]c2c1 . Reported Percent Effect: -7.247
